B1: C10orf62 (parent)
chain: TSECPSDKDKSPESHKAKNESWIK

Variants of: B1
experiment: protein stability index of a GFP-peptide fusion (GPS, HEK-293T) (PSI 1-6); higher = more stable;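 note: lentivirally expressed fusions sorted by FACS into six bins by GFP to DsRed ratio, PSI derived from sequencing read proportions per bin multiplied by bin number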
condition_info: c terminus: a fixed tail appended
// label = 1 if protein stability index is not less than 4, otherwise -1

Solved cases (5 shown):
- mutant_code: "K16M"
  cat: -1
- mutant_code: "S21P"
  cat: -1
- mutant_code: "K24P"
  cat: 1
- mutant_code: "K10P"
  cat: -1
- mutant_code: "E20L"
  cat: 1

Lookup: Say whether P12L shows protein stability index of 4 or more.
Found: -1

Lookup: Threshold query (protein stability index >= 4) on S14G
Found: -1

Lookup: Has K16G a recorded protein stability index greater than or equal to 4?
Found: -1
